pKi reference
Biological target: human arginase I (Homo sapiens, UniProt P05089)
Sequence (P05089 1-322): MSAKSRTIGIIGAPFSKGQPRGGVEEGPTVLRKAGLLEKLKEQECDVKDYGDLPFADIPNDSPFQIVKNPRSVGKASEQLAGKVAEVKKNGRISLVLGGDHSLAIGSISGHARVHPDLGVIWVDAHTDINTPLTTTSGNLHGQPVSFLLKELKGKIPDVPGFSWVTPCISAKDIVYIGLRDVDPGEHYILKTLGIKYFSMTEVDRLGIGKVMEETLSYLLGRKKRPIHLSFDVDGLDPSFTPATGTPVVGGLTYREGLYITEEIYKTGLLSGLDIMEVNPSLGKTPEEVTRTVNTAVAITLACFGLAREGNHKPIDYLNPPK
Test: Arginase inhibition, QuantiChrom colorimetric urea assay, IC50 converted to Ki
Assay type: biochemical
Conditions: Table 3; pH 9.5; read-out: human Arginase I pH 9.5, Ki assigned value
pKi: −log10 of the molar value.

NC(CCCCB(O)O)(CCCN1CCC(O)(Cc2ccccc2)CC1)C(=O)O (stereo not shown) [Example 39] :: > 8.00
NC(CCCCB(O)O)(CCCN1CCC2(CC1)C(=O)NCN2c1ccccc1)C(=O)O (stereo not shown) [Example 31] :: 7.30 to 7.96
NC(CCCCB(O)O)(CCCN1CCCC1)C(=O)O (stereo not shown) [Example 56] :: 7.30 to 7.96
NC(CCCCB(O)O)(CCCN1C2CCC1CC(n1cnc3ccccc31)C2)C(=O)O (stereo not shown) [Example 102] :: 7.30 to 7.96
NC(CCCCB(O)O)(CCCN1CC(c2ccccc2)C1)C(=O)O (stereo not shown) [Example 58] :: 7.30 to 7.96
CN1CCN(CCCC(N)(CCCCB(O)O)C(=O)O)CC1 (stereo not shown) [Example 106] :: 7.30 to 7.96
NC(CCCCB(O)O)(CCCCN1CCc2ccccc2C1)C(=O)O (stereo not shown) [Example 96] :: 7.30 to 7.96
NC(CCCCB(O)O)(CCCN1CCCC(c2ccccc2)C1)C(=O)O (stereo not shown) [Example 26] :: 7.30 to 7.96
NC(CCCCB(O)O)(CCCN1CCC(Nc2ccccc2)CC1)C(=O)O (stereo not shown) [Example 103] :: 7.30 to 7.96

Proceed to the following item.
Identify the reported pKi for the following entry. NC(CCCCB(O)O)(CCCN1CCC(NC(=O)Nc2ccc(Cl)c(Cl)c2)C1)C(=O)O (stereo not shown) [Example 112]
> 8.00
